Assay: self-splicing fitness, log relative to wild type (ln ratio); higher = more splicing; Tetrahymena group I intron in knt gene, E. coli kanamycin selection, DiMSum; sequences stand for … in CUCUCU…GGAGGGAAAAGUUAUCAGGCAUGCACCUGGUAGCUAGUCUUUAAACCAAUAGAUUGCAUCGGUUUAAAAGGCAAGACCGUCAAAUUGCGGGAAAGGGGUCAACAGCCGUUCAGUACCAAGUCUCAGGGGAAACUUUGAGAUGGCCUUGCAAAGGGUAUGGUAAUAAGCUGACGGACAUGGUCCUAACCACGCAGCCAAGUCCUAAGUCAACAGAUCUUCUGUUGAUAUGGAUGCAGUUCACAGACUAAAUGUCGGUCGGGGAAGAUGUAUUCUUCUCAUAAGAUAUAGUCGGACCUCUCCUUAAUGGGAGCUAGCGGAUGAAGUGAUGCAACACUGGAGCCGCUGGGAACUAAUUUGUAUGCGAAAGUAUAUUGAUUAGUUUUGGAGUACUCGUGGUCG;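 also: selection with 25 µg/mL kanamycin versus none on LB agar overnight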
Settings: 30 °C
Parameter threshold = -2. Response is criterion met when self-splicing fitness (ln) meets or exceeds it, else criterion not met.

>>> classification("CCGCAGCAAUAUUACGCAGU")
"criterion not met"
>>> classification("CUCAAGCAAUAUUACGUGCC")
"criterion not met"
>>> classification("AUGCAGCAAUAUUACGAUGA")
"criterion met"
>>> classification("CCAUAGCAAUAUUACGGUCC")
"criterion not met"
>>> classification("UUCCAGCAAUAUUACGAUAU")
"criterion not met"
>>> classification("ACUGAGCAAUAUUACGACCG")
"criterion met"
>>> classification("GGACAGCAAUAUUACGGUGG")
"criterion met"
>>> classification("ACGGAGCAAUAUUACGCAUC")
"criterion not met"
>>> classification("UACCAGCAAUAUUACGCCUC")
"criterion not met"
>>> classification("GGCAAGCAAUAUUACGUGCG")
"criterion met"
>>> classification("GACUAGCAAUAUUACGCUAC")
"criterion met"
>>> classification("GCGAAGCAAUAUUACGGACA")
"criterion met"
>>> classification("AGUCAGCAAUAUUACGACAG")
"criterion met"
>>> classification("GUAAAGCAAUAUUACGAUCU")
"criterion met"
>>> classification("GAUGAGCAAUAUUACGGGUU")
"criterion not met"
>>> classification("UUAGAGCAAUAUUACGUGAC")
"criterion not met"
>>> classification("GAUUAGCAAUAUUACGGCCG")
"criterion met"
>>> classification("ACUCAGCAAUAUUACGUUAA")
"criterion not met"
>>> classification("CUGCAGCAAUAUUACGACGC")
"criterion not met"
>>> classification("ACAAAGCAAUAUUACGCUCG")
"criterion met"
>>> classification("CAGCAGCAAUAUUACGCCAG")
"criterion met"
>>> classification("AUCAAGCAAUAUUACGUGGC")
"criterion not met"
>>> classification("ACAGAGCAAUAUUACGUGGG")
"criterion not met"
>>> classification("ACUUAGCAAUAUUACGGUAA")
"criterion not met"
>>> classification("UCCGAGCAAUAUUACGUGGU")
"criterion not met"
>>> classification("CGCGAGCAAUAUUACGCAGC")
"criterion not met"
>>> classification("GAAGAGCAAUAUUACGUCUG")
"criterion not met"
>>> classification("ACUUAGCAAUAUUACGACAU")
"criterion met"
>>> classification("CGGUAGCAAUAUUACGGUCU")
"criterion met"
>>> classification("UUUCAGCAAUAUUACGCACG")
"criterion met"
>>> classification("AGAAAGCAAUAUUACGCAUU")
"criterion not met"
>>> classification("AUUCAGCAAUAUUACGCGUG")
"criterion met"
>>> classification("CAUAAGCAAUAUUACGUGAA")
"criterion not met"
>>> classification("UCUCAGCAAUAUUACGGAGC")
"criterion not met"
